# Test system: HeLa
# Test: Antiproliferative activity against human HeLa cells assessed as cell viability after 72 hrs by MTT assay
# Type: functional, cell-based
# key: entry, value: IC50
Use µM as the unit, but write only the number.

Molecule: CSC(=S)NCc1cn(C(=O)OC(C)(C)C)c2ccccc12
Parameter: IC50
Endpoint value: 16.9
//
Molecule: CN(C1=NC[C@]2(S1)c1ccccc1N(C(=O)OC(C)(C)C)[C@H]2O)c1ccccc1 (racemic)
Parameter: IC50
Endpoint value: 22.3
//
Molecule: Fc1ccc(NC2=NCc3c([nH]c4ccccc34)S2)cc1
Parameter: IC50
Endpoint value: 21.7
//
Molecule: CO[C@@H]1N(C(=O)OC(C)(C)C)c2ccccc2[C@@]12CN=C(Nc1ccc(F)cc1)S2 (racemic)
Parameter: IC50
Endpoint value: 27.5
//
Molecule: CO[C@@H]1N(C(=O)OC(C)(C)C)c2ccccc2[C@@]12CN=C(N(C)c1ccccc1)S2 (racemic)
Parameter: IC50
Endpoint value: 32
//
Molecule: CO[C@@H]1N(C(=O)OC(C)(C)C)c2ccccc2[C@@]12CN=C(Nc1ccc(Br)cc1)S2 (racemic)
Parameter: IC50
Endpoint value: 65.5
//
Molecule: CC(C)(C)OC(=O)n1cc(CNC(=S)Nc2ccc([N+](=O)[O-])cc2)c2ccccc21
Parameter: IC50
Endpoint value: 14
//
Molecule: CC(C)(C)OC(=O)n1cc(CNC(=S)Nc2ccccc2)c2ccccc21
Parameter: IC50
Endpoint value: 20.4

Exam item: Requested read-out IC50, target or system HeLa, entry "CC(C)(C)OC(=O)n1cc(CNC(=S)N2CCCCC2)c2ccccc21"
Marked response: 36.8

Exam item: Please provide the recorded IC50 for CO[C@@H]1N(C(=O)OC(C)(C)C)c2ccccc2[C@@]12CN=C(Nc1ccc(C(F)(F)F)cc1)S2 (racemic) , tested on HeLa.
Marked response: 11.3

Exam item: Notebook entry, HeLa assay: IC50 of "CC(C)(C)OC(=O)n1cc(CNC(=S)Nc2ccc(C(F)(F)F)cc2)c2ccccc21" = ?
Marked response: 4

Exam item: Request: IC50, test system HeLa, entry "CNC1=NCc2c([nH]c3ccccc23)S1"
Marked response: 67.2

Exam item: Checklist item: IC50 tested on HeLa, entry CO[C@H]1N(C(=O)OC(C)(C)C)c2ccccc2[C@@]12CN=C(Nc1ccc([N+](=O)[O-])cc1)S2 (racemic) , value?
Marked response: 31.3

Exam item: Checklist item: IC50 tested on HeLa, entry CO[C@@H]1N(C(=O)OC(C)(C)C)c2ccccc2[C@@]12CN=C(NC1CCCCC1)S2 (racemic) , value?
Marked response: 36.7

Exam item: Provide value of IC50 for this record tested with HeLa: "CC(C)(C)OC(=O)n1cc(CNC(=S)Nc2cc(C(F)(F)F)cc(C(F)(F)F)c2)c2ccccc21"
Marked response: 6.6

Exam item: Recorded IC50 for "COc1ccc(NC(=S)NCc2cn(C(=O)OC(C)(C)C)c3ccccc23)cc1" with HeLa, please?
Marked response: 34

Exam item: For the record "CC(C)(C)OC(=O)n1cc(CNC(=S)N2CCOCC2)c2ccccc21" , what value of IC50 is listed for HeLa?
Marked response: 80

----------
# System: MCF7
# Test: Antiproliferative activity against human MCF7 cells assessed as cell viability after 72 hrs by MTT assay
# Type: functional, cell-based
# Setup conditions: MCF7, 72 h
Labelling field: enter True if recorded IC50 is less than 30 µM. Enter False if it equals or exceeds that cut-off.

Example cases with answers are listed next.
Compound: CNC1=NC[C@]2(S1)c1ccccc1N(C(=O)OC(C)(C)C)[C@H]2OC (racemic)
Group label: False
//
Compound: CSC1=NC[C@]2(S1)c1ccccc1N(C(=O)OC(C)(C)C)[C@H]2O (racemic)
Group label: False
//
Compound: CN(C1=NC[C@]2(S1)c1ccccc1N(C(=O)OC(C)(C)C)[C@@H]2O)c1ccccc1 (racemic)
Group label: True
//
Compound: O=[N+]([O-])c1ccc(NC2=NCc3c([nH]c4ccccc34)S2)cc1
Group label: True
//
Compound: CON1c2ccccc2C2(CN=C(SC)S2)C1O (racemic)
Group label: False
//
Compound: CO[C@@H]1N(C(=O)OC(C)(C)C)c2ccccc2[C@@]12CN=C(N(C)c1ccccc1)S2 (racemic)
Group label: True

Could you now consider this next compound?
Exam item: Bench note: check whether CO[C@H]1N(C(=O)OC(C)(C)C)c2ccccc2[C@@]12CN=C(Nc1ccccc1)S2 (racemic) shows IC50 below 30 µM
Marked response: True

----------
# Tested on: MCF7
# Test: Antiproliferative activity against human MCF7 cells assessed as cell viability after 72 hrs by MTT assay
# Format: functional, cell-based
# Setup conditions: MCF7, 72 h
Parameter: IC50 (µM)
Provide the reading as a plain figure in µM.

Exam item: Find the recorded IC50 belonging to "c1ccc2c3c([nH]c2c1)SC(N1CCOCC1)=NC3" and report it.
Marked response: 55.1

Exam item: Any idea what its IC50 is? The compound is CO[C@@H]1N(C(=O)OC(C)(C)C)c2ccccc2[C@@]12CN=C(Nc1ccc(Br)cc1)S2 (racemic)
Marked response: 78

Exam item: // query IC50 value for entry CO[C@@H]1N(C(=O)OC(C)(C)C)c2ccccc2[C@@]12CN=C(N1CCOCC1)S2 (racemic)
Marked response: 69.5

Exam item: Which IC50 value belongs to CO[C@H]1N(C(=O)OC(C)(C)C)c2ccccc2[C@@]12CN=C(SC)S2 (racemic) ?
Marked response: 70.2

Exam item: Need IC50 of "Cc1ccc(NC(=S)NCc2cn(C(=O)OC(C)(C)C)c3ccccc23)cc1" , thanks.
Marked response: 30

Exam item: Given CN(C1=NC[C@]2(S1)c1ccccc1N(C(=O)OC(C)(C)C)[C@H]2O)c1ccccc1 (racemic) , state its recorded IC50.
Marked response: 30.3

Exam item: Which IC50 is reported for this compound? "c1ccc2c3c([nH]c2c1)SC(NC1CCCCC1)=NC3"
Marked response: 64.3

Exam item: Need IC50, item CSC1=NC[C@]2(S1)c1ccccc1N(C(=O)OC(C)(C)C)[C@@H]2O (racemic)
Marked response: 100

Exam item: I am curious: what IC50 value has been reported for CO[C@H]1N(C(=O)OC(C)(C)C)c2ccccc2[C@@]12CN=C(N1CCCCC1)S2 (racemic) ?
Marked response: 52.6

Exam item: Name the reported IC50 value associated with the compound "Clc1ccc(NC2=NCc3c([nH]c4ccccc34)S2)cc1"
Marked response: 30

Exam item: Need IC50 of CO[C@H]1N(C(=O)OC(C)(C)C)c2ccccc2[C@@]12CN=C(N(C)c1ccccc1)S2 (racemic) , thanks.
Marked response: 1.5

Exam item: # IC50 lookup, item "FC(F)(F)c1ccc(NC2=NCc3c([nH]c4ccccc34)S2)cc1"
Marked response: 35.7

Exam item: Any idea what IC50 was measured for "COc1ccc(NC2=NCc3c([nH]c4ccccc34)S2)cc1" ?
Marked response: 28.7

Exam item: Given "FC(F)(F)c1cc(NC2=NCc3c([nH]c4ccccc34)S2)cc(C(F)(F)F)c1" , state its recorded IC50.
Marked response: 38.7

Exam item: Sample CO[C@@H]1N(C(=O)OC(C)(C)C)c2ccccc2[C@@]12CN=C(SC)S2 (racemic) — what was its IC50?
Marked response: 100

Exam item: Can you look up the measured IC50 of CO[C@@H]1N(C(=O)OC(C)(C)C)c2ccccc2[C@@]12CN=C(Nc1ccc(C)cc1)S2 (racemic) for me?
Marked response: 31.5

----------
# Test system: MCF7
# Test: Antiproliferative activity against human MCF7 cells assessed as cell viability after 72 hrs by MTT assay
# Type: functional, cell-based
# Setup conditions: MCF7, 72 h
Parameter: IC50
Express the reported value numerically, then name its unit.

Compound: CO[C@H]1N(C(=O)OC(C)(C)C)c2ccccc2[C@@]12CN=C(NC1CCCCC1)S2 (racemic)
IC50: 27.5 µM

Next compound, IC50 to be filled in.
Exam item: Bench note: what IC50 did "CC(C)(C)OC(=O)n1cc(CNC(=S)Nc2ccc([N+](=O)[O-])cc2)c2ccccc21" show?
Marked response: 9.3 µM

----------
# Test system: CCRF-CEM
# Test: Selectivity index, ratio of IC50 for HUVEC to IC50 for human CCRF-CEM cells
Parameter: Ratio IC50
Reply with just the number.

Exam item: Identify the measured Ratio IC50 of "Fc1ccc(NC2=NCc3c([nH]c4ccccc34)S2)cc1" for CCRF-CEM.
Marked response: 24.7

Exam item: Given the entry "Clc1ccc(NC2=NCc3c([nH]c4ccccc34)S2)cc1" , what Ratio IC50 was observed with CCRF-CEM?
Marked response: 0.3

Exam item: Requested read-out Ratio IC50, target or system CCRF-CEM, entry "FC(F)(F)c1cc(NC2=NCc3c([nH]c4ccccc34)S2)cc(C(F)(F)F)c1"
Marked response: 6.6

Exam item: Record COc1cc([C@@H]2c3cc4c(cc3[C@@H](O[C@@H]3O[C@@H]5CO[C@@H](C)O[C@H]5[C@H](O)[C@H]3O)[C@H]3COC(=O)[C@H]23)OCO4)cc(OC)c1O [ETOPOSIDE] : what is its Ratio IC50 with CCRF-CEM?
Marked response: 1.14

Exam item: Please provide the recorded Ratio IC50 for CSC1=NCc2c([nH]c3ccccc23)S1 [CYCLOBRASSININ] , tested on CCRF-CEM.
Marked response: 2.2

Exam item: Hello, I am looking for reported Ratio IC50 with CCRF-CEM for "FC(F)(F)c1ccc(NC2=NCc3c([nH]c4ccccc34)S2)cc1" . Could you help?
Marked response: 6.9

Exam item: What is its Ratio IC50 for CCRF-CEM? Entry: "O=[N+]([O-])c1ccc(NC2=NCc3c([nH]c4ccccc34)S2)cc1"
Marked response: 11.6
